target: Cytochrome P450 2D6 (Homo sapiens); assay: Cytochrome P450 Family 2 Subfamily D Member 6 (CYP2D6) small molecule antagonists: luciferase reporter qHTS assay (AID 1671196); settings: P450-Glo CYP2D6 enzyme assay, luciferin luminescence, 1 h; series mostly up to 115 µM; also: % is scaled to controls: 0 for no effect and ±100 for the full control effect; nearly all actives have a fitted effect of over 50% in size
Records with an inconclusive call do not appear. The source made the active and inactive calls. Calls follow the shape of the dose curve; as a rule, active = well fitted inhibition curve with a large enough effect in the repeat runs; inconclusive = weak or mixed curves; inactive = no such curve, though single readings can be large or run the other way.
assay.metric: activity change, negative = inhibition

>>> reading("O=C(O)CNCC(=O)O")
"-0.567% [at 10.5 µM] (inactive)"
>>> reading("C/C=C/C(=O)CC")
"0.0645% [at 23.6 µM] (inactive)"
>>> reading("NC(N)=NCCC[C@H](N)C(=O)O")
"-7.41% [at 10.5 µM] (inactive)"
>>> reading("Cc1[nH]c(C)c(Cl)c(=O)c1Cl")
"-9.89% [at 23.6 µM] (inactive)"
